Reference for the values: PubChem BioAssay (NCI)

Quick reference: TGI of the listed items.
tested on: IGROV1 ovarian; assay: NCI tumour cell line growth inhibition, 48 h
observed-property: TGI

[[record]]
compound = "Cc1nc2cc(NC(=O)CN3CCN(CCN4C(=O)c5cccc6cccc(c56)C4=O)CC3)ccc2s1"
observed_property = "TGI"
assay_result = "> 100 µM"

[[record]]
compound = "COc1cc2c(c(OC)c1OC)-c1c(c3ccc([N+](=O)[O-])cc3c(=O)n1CCCN=[N+]=[N-])C2=O"
observed_property = "TGI"
assay_result = "33.3 µM"

[[record]]
compound = "CC(C)(C)OC(=O)NCCNC(=O)OCc1ccccc1"
observed_property = "TGI"
assay_result = "> 100 µM"

[[record]]
compound = "CC(C)(C)C(=O)C(C#N)C(=O)C(C)(C)C"
observed_property = "TGI"
assay_result = "> 100 µM"

[[record]]
compound = "COc1ccc2nccc(C3OC(=O)N4CCC(=O)CC34)c2c1 (centres undefined)"
observed_property = "TGI"
assay_result = "> 100 µM"

[[record]]
compound = "CC(C)OP(=O)(OC(C)C)c1ncn(-c2ccc([N+](=O)[O-])cc2)n1"
observed_property = "TGI"
assay_result = "> 100 µM"

[[record]]
compound = "O=C(/C=C/CN1CCCCC1)Nc1cc2c(Nc3ccc(F)c(Cl)c3F)ncnc2cc1OCCOC(F)F"
observed_property = "TGI"
assay_result = "0.815 µM"

[[record]]
compound = "Cc1ccc(-n2cc(-c3ccc(Cl)cc3)c3c(NNC(=S)NCc4ccccc4)ncnc32)cc1"
observed_property = "TGI"
assay_result = "54.4 µM"

[[record]]
compound = "CC(=O)/C=C\\C(=O)NNS(=O)(=O)c1ccc(C)cc1"
observed_property = "TGI"
assay_result = "> 100 µM"

[[record]]
compound = "Cc1cccc2ns[s+]c12"
observed_property = "TGI"
assay_result = "> 100 µM"

[[record]]
compound = "CC(C)CCC[C@@H](C)[C@H]1CC[C@H]2[C@@H]3CC=C4CC(OCCCCN(O)CCCSC5OC(CO)C(O)C(O)C5O)CC[C@]4(C)[C@H]3CC[C@]12C (some centres undefined)"
observed_property = "TGI"
assay_result = "50 µM"

[[record]]
compound = "Cn1cnc2nc(Cl)nc(Cl)c21"
observed_property = "TGI"
assay_result = "37.7 µM"

[[record]]
compound = "C=C1C(=O)O[C@H]2[C@H]1CC/C(Cn1cc(CNC(=O)c3cc4ccccc4[nH]3)nn1)=C\\CC[C@@]1(C)O[C@@H]21"
observed_property = "TGI"
assay_result = "10.6 µM"

[[record]]
compound = "Clc1ccc(CCn2ccc3ccccc32)c(Cl)c1"
observed_property = "TGI"
assay_result = "> 100 µM"

[[record]]
compound = "COc1cc(OC)cc(N(C)Cc2cnc3nc(N)nc(N)c3c2C)c1"
observed_property = "TGI"
assay_result = "> 100 µM"

[[record]]
compound = "O=C1[C@@H]2C3C=CC([C@H]4C(=O)N(CO)C(=O)[C@@H]34)[C@@H]2C(=O)N1CO"
observed_property = "TGI"
assay_result = "> 100 µM"

[[record]]
compound = "O=C(c1ccccc1)c1cc(-c2ccccc2)c(-c2ccccc2)[nH]c(=O)c1=O"
observed_property = "TGI"
assay_result = "> 100 µM"

[[record]]
compound = "COC(=O)C1(C(=O)OC)CC2=C(S(=O)(=O)c3ccccc3)C[C@@H](C#N)[C@H]2C1"
observed_property = "TGI"
assay_result = "> 100 µM"

[[record]]
compound = "COc1ccc(-c2nccn2-c2cc(OC)c(OC)c(OC)c2)cc1"
observed_property = "TGI"
assay_result = "> 100 µM"

[[record]]
compound = "COC(=O)C1CCC2(CC1)NC(=O)NC2=O (centres undefined)"
observed_property = "TGI"
assay_result = "> 100 µM"

[[record]]
compound = "CC1(C)CC(=O)C2=C(C1)OC1=C(CC(C)(C)CC1=O)C2c1ccccc1Cl (centres undefined)"
observed_property = "TGI"
assay_result = "> 100 µM"

[[record]]
compound = "CCCCCCc1cc2cc(C(=O)Nc3cccc(C(F)(F)F)c3)c(=N)oc2cc1O"
observed_property = "TGI"
assay_result = "11.1 µM"

[[record]]
compound = "N#Cc1c(C#N)c(-c2ccco2)n(/N=C/c2ccco2)c1N"
observed_property = "TGI"
assay_result = "> 100 µM"

[[record]]
compound = "Cn1c(N)cc(=O)nc1N"
observed_property = "TGI"
assay_result = "> 100 µM"

[[record]]
compound = "CC[N+]1(C)CCC(O)(/C=C/c2ccccc2)C(C(=O)/C=C/c2ccccc2)C1 (centres undefined)"
observed_property = "TGI"
assay_result = "37.9 µM"

[[record]]
compound = "CN(C)c1ccc(/C=C/C(=O)c2ccc(Nc3nc(Nc4ccc(F)cc4)nc(Nc4ccc(Cl)cc4)n3)cc2)cc1"
observed_property = "TGI"
assay_result = "22.1 µM"

[[record]]
compound = "CC(=S)NC1C(Oc2ccc3c(C)cc(=O)oc3c2)OC(CO)C(O)C1O (centres undefined)"
observed_property = "TGI"
assay_result = "> 100 µM"

[[record]]
compound = "COCN1C(=O)[C@@H]2C[C@@H](OC/C=C/CBr)CN2C(=O)c2ccccc21"
observed_property = "TGI"
assay_result = "26.5 µM"

[[record]]
compound = "COc1cc(NS(C)(=O)=O)ccc1N1Cc2cnc3ccc4[nH]ccc1c4c23"
observed_property = "TGI"
assay_result = "> 100 µM"

